assay: Toxicokinetics in Beagle dogs, 7 day repeat oral administration; assay type: in vivo; conditions: female, Beagle, dog, plasma, po, 20 mg/kg, 20 mg/kg PO BID, Day7, Female, Subject 1, read-out: AUC (0-12 hr)
READOUT: AUC(0-t) (ng·h/mL)

INSERT INTO measurements (compound_smiles, quantity_unit, meas_value) VALUES
  ('CC(C)CN(c1ccc([C@H](C)CC(=O)O)cc1Nc1nnc(C2CC2)s1)C1CCOCC1', 'ng·h/mL', 3800);

----------
molecular target: indoleamine 2, 3-dioxygenase (IDO1) (Homo sapiens, UniProt P14902); assay: IDO1 PBMC RapidFire MS assay (kynurenine detection by mass spectrometry); assay type: cell-based; set-up: to induce the expression of indoleamine 2, 3-dioxygenase (IDO1); host or cells: human PBMC stimulated with IFN-gamma and LPS; conditions: human PBMC stimulated with IFN-γ and LPS, 2 days, pIC50, read-out: PBMC PXC50 (converted)
Sequence (P14902 whole entry): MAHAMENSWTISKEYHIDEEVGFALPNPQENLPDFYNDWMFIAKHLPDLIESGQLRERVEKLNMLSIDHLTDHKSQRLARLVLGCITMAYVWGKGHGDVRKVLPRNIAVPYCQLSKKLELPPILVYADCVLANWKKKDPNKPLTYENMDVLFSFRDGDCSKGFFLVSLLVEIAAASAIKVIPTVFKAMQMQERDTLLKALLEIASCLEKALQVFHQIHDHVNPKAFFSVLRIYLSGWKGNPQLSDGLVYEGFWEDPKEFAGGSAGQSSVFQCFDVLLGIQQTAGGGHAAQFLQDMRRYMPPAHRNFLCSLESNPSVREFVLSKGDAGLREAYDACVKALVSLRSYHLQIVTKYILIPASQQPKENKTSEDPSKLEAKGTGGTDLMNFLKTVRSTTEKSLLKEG
Listing of entries alongside the reported log10 IC50.
READOUT: log10 IC50 (log10 of the value in nM)

INSERT INTO results (compound, meas_value) VALUES
  ('CC(C)CN(c1ccc([C@H](C)CC(=O)O)cc1Nc1cnc(Cl)cn1)C1CCOCC1 [Example 12]', 0.00),
  ('CC(C)CN(c1ccc(C2CC2C(=O)O)cc1Nc1nc(C(F)(F)F)ns1)C1CCCCC1 (single isomer, unassigned) [Example 104]', 0.40),
  ('CC(C)CN(CC(C)C)c1ccc(C2CC2C(=O)O)cc1Nc1nc(Cl)ns1 (centres unmarked) [example 177]', 1.50),
  ('CC(C)CN(c1ccc(C(C)CC(=O)O)cc1NC1=N[C@@H](c2ccccc2)CO1)C1CCCCC1 (some centres unmarked) [example 153]', 3.30),
  ('CC(C)CN(c1ccc([C@H](C)CC(=O)O)cc1Nc1n[nH]c(C(F)(F)F)n1)[C@H]1CC[C@@H](Br)CC1 [Example 93]', 0.10),
  ('CC(C)CN(c1ccc([C@H](C)CC(=O)O)cc1Nc1n[nH]c(C#N)n1)C1CCCCC1 [Example 83]', 0.90),
  ('CC(C)CN(CC(C)C)c1ccc(C(C)CC(=O)O)cc1Nc1nnnn1C (centres unmarked) [example 252]', 3.60),
  ('CC(C)CN(c1ccc([C@H](C)CC(=O)O)cc1Nc1ccc(C(N)=O)nc1)C1CCOCC1 [example 239]', 1.40);

// provenance: patent US10899754B2
